target: T1, Peptide A (human PAR-2), unbiotinylated (Human); test: SPR, antibody captured
T1 construct: also called Peptide A No Biotin
T1 peptide: GTNRSSKGRSLIGKVDGT
property_name: T1/2 (min)
Just the number please, in min, no unit attached.

Param item = H4H588N (antibody, human IgG4, V domains shown, also called H2M588N variable regions) VH: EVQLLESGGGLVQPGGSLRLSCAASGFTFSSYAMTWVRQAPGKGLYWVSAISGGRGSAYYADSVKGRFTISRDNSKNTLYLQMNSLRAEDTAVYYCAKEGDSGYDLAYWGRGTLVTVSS VL: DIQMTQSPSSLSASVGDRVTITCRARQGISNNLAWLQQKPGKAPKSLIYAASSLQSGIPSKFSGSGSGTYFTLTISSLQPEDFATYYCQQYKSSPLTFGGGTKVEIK ; retrieve measured T1/2. 25.1

Another binder to check: H4H579P (antibody, human IgG4, V domains shown, also called H1H579P variable regions) VH: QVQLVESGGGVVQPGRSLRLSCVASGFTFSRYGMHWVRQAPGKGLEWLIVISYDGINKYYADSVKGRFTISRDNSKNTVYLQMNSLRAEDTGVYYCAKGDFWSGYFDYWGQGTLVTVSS VL: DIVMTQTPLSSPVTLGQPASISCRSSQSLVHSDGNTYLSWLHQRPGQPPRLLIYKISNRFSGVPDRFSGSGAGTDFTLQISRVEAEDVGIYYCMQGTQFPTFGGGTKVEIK 4.1

Another binder to check: H4H585P (antibody, human IgG4, V domains shown, also called H1H585P variable regions) VH: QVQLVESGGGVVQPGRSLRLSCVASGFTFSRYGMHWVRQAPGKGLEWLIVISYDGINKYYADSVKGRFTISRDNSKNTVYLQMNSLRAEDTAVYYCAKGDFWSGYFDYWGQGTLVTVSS VL: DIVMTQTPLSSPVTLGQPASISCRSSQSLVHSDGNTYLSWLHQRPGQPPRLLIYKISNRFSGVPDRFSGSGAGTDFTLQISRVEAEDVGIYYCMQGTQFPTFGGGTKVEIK 3.7
